Just for reference, the supplement of paper PMC9112550 is where these values come from.

Kindly supply the reported shrunken log2 fold change values for the records listed here.
Test system: Escherichia coli TOP10
Test: shrunken log2 fold change of peptide-encoding DNA abundance (4.5 h post-induction vs induction); higher = less antimicrobial activity (less host growth inhibition)
Conditions: time post-induction: 4.5 h; library: site-saturation at positions 5, 18, 19, 20
Numbers only.

Please give shrunken log2 fold change, item by item, for the list that follows.
1. RRIRMRPPRLPRPRPRPWRRPRP
2. RRIRWRPPRLPRPRPRPNWAPRP
3. RRIRKRPPRLPRPRPRPMRMPRP
4. RRIRERPPRLPRPRPRPAFLPRP
5. RRIRCRPPRLPRPRPRPYHHPRP
6. RRIRARPPRLPRPRPRPTSVPRP
7. RRIRCRPPRLPRPRPRPALMPRP

Resp:
1. 0.22
2. -0.0835
3. 1.84
4. -0.289
5. -0.746
6. 0.52
7. -0.011

---

System: Escherichia coli TOP10
Experiment: shrunken log2 fold change of peptide-encoding DNA abundance (4.5 h post-induction vs induction); higher = less antimicrobial activity (less host growth inhibition)
Conditions: time post-induction: 4.5 h; library: site-saturation at positions 5, 18, 19, 20
observed-property: shrunken log2 fold change
Give bare numbers.

Req: Please state recorded shrunken log2 fold change (tested on Escherichia coli TOP10) of RRIRLRPPRLPRPRPRPVAWPRP;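 note: peptides expressed intracellularly from a pBAD plasmid library in pooled LB shake-flask culture, induced with 0.3% L-arabinose, DNA abundance read by NGS, three biological replicates, DESeq2 with apeglm shrinkage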
Resp: 0.225

Req: How about this sequence: RRIRNRPPRLPRPRPRPKCYPRP
Resp: -0.0478

Req: How about this sequence: RRIRYRPPRLPRPRPRPVACPRP
Resp: -0.187

Req: How about this sequence: RRIRMRPPRLPRPRPRPREMPRP
Resp: 0.657

Req: How about this sequence: RRIRGRPPRLPRPRPRPVFPPRP
Resp: 0.36

Please give shrunken log2 fold change, item by item, for the list that follows.
1. RRIRARPPRLPRPRPRPWHNPRP
2. RRIRMRPPRLPRPRPRPREGPRP
3. RRIRQRPPRLPRPRPRPHDPPRP
4. RRIRNRPPRLPRPRPRPAVMPRP

Resp:
[-0.0874, 0.79, 0.142, -0.0474]

Please give shrunken log2 fold change, item by item, for the list that follows.
1. RRIRLRPPRLPRPRPRPPHEPRP
2. RRIRFRPPRLPRPRPRPYKAPRP
3. RRIRLRPPRLPRPRPRPAGTPRP
4. RRIRCRPPRLPRPRPRPQDRPRP

Resp:
[0.269, -0.153, 0.216, -0.175]

Please give shrunken log2 fold change, item by item, for the list that follows.
1. RRIRPRPPRLPRPRPRPVWQPRP
2. RRIRMRPPRLPRPRPRPRELPRP
3. RRIRWRPPRLPRPRPRPWFRPRP

Resp:
1: 0.23; 2: 1.54; 3: -0.251

Please give shrunken log2 fold change, item by item, for the list that follows.
1. RRIRMRPPRLPRPRPRPVYVPRP
2. RRIRRRPPRLPRPRPRPVSGPRP
3. RRIRGRPPRLPRPRPRPPSNPRP
4. RRIRERPPRLPRPRPRPGCAPRP
5. RRIRLRPPRLPRPRPRPMMLPRP
6. RRIRGRPPRLPRPRPRPKQCPRP

Resp:
-0.161
0.366
0.374
0.335
-0.335
0.103

Please give shrunken log2 fold change, item by item, for the list that follows.
1. RRIRTRPPRLPRPRPRPFMQPRP
2. RRIRIRPPRLPRPRPRPLPPPRP
3. RRIRNRPPRLPRPRPRPFRWPRP

Resp:
1: -0.0497; 2: 0.127; 3: 0.0512

Please give shrunken log2 fold change, item by item, for the list that follows.
1. RRIRNRPPRLPRPRPRPIFNPRP
2. RRIRNRPPRLPRPRPRPDCFPRP
3. RRIRERPPRLPRPRPRPYFYPRP
4. RRIRARPPRLPRPRPRPDNFPRP

Resp:
1. -0.302
2. -0.306
3. -0.757
4. -0.294

Please give shrunken log2 fold change, item by item, for the list that follows.
1. RRIRERPPRLPRPRPRPHCYPRP
2. RRIRARPPRLPRPRPRPWIHPRP
3. RRIRSRPPRLPRPRPRPEPNPRP

Resp:
1: -0.291; 2: -0.264; 3: 0.374
